# Target Of Assay: T1, human BAFF (10056-HNCH, Sino biological) (human, UniProt Q9Y275 134-285)
# T1 construct: Bought protein
# Protocol Text: ELISA, BAFF coated, fusion protein titrated
Exercise: for every item that follows, state its recorded EC50.
Kindly format the answer as number then unit.

Exercise: Which EC50 is listed for TACI-13 Fc (Fc fusion, Fused directly to Fc; two identical polypeptides) SLSCRKEQGKFYDHLLRDCISCASICGQHPKQCAYFCDKTHTCPPCPAPEAEGAPSVFLFPPKPKDTLMISRTPEVTCVVVDVSHEDPEVKFNWYVDGVEVHNAKTKPREEQYNSTYRVVSVLTVLHQDWLNGKEYKCKVSNKALPSSIEKTISKAKGQPREPQVYTLPPSRDELTKNQVSLTCLVKGFYPSDIAVEWESNGQPENNYKTTPPVLDSDGSFFLYSKLTVDKSRWQQGNVFSCSVMHEALHNHYTQKSLSLSPGK ?
Key: 3.66 nM

Exercise: Which EC50 is listed for TACI-18Fc (Fc fusion, Fused directly to Fc; two identical polypeptides) CRKEQGKFYDHLLRDCISCASICGQHPKQCAYFCEDKTHTCPPCPAPEAEGAPSVFLFPPKPKDTLMISRTPEVTCVVVDVSHEDPEVKFNWYVDGVEVHNAKTKPREEQYNSTYRVVSVLTVLHQDWLNGKEYKCKVSNKALPSSIEKTISKAKGQPREPQVYTLPPSRDELTKNQVSLTCLVKGFYPSDIAVEWESNGQPENNYKTTPPVLDSDGSFFLYSKLTVDKSRWQQGNVFSCSVMHEALHNHYTQKSLSLSPGK ?
Key: 0.992 nM

Exercise: Which EC50 is listed for TACI-12 Fc (Fc fusion, TACI-9 truncated at the C-terminus by 3 amino acids NKL, fused directly to Fc; two identical polypeptides) SLSCRKEQGKFYDHLLRDCISCASICGQHPKQCAYFCEDKTHTCPPCPAPEAEGAPSVFLFPPKPKDTLMISRTPEVTCVVVDVSHEDPEVKFNWYVDGVEVHNAKTKPREEQYNSTYRVVSVLTVLHQDWLNGKEYKCKVSNKALPSSIEKTISKAKGQPREPQVYTLPPSRDELTKNQVSLTCLVKGFYPSDIAVEWESNGQPENNYKTTPPVLDSDGSFFLYSKLTVDKSRWQQGNVFSCSVMHEALHNHYTQKSLSLSPGK ?
Key: 0.894 nM
